Collected IC50 of inhibition of caspase-3/7 activation in TL1A-stimulated TF-1 cells values appear next to each entry.
# Study target: T1, recombinant protein His-fib-hTL1A (human)
# T1 chain: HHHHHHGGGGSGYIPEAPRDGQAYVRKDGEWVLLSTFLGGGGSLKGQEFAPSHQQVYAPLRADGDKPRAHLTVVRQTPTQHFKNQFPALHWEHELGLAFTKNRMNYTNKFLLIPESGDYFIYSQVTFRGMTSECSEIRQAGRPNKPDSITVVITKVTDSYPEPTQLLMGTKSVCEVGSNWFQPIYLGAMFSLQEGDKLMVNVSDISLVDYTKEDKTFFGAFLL
# Protocol: cell-based or functional assay
Readout name: IC50 of inhibition of caspase-3/7 activation in TL1A-stimulated TF-1 cells (nM)

• mouse anti-TL1A monoclonal antibody S4D3 (antibody, V domains shown) VH: QVQLKESGSDLATPGASVKLSCKVSGYTFTKYDINWVRQRPEQGLEWIGWIFPGDGRTDYNEKFKGKATLTIDTSSSTAYMQLSRLTSEDSAVYFCARYGYALDYWGQGTSVTVSS VL: DVVMTQTPLSLPVSLGDQASISCRSSQNIVHSNGDTYLEWFLQKPGQSPKLLIYKVSNRFSGVPDRFSGSGSGTDFTLKISRVEAEDLGVYYCFQGSHFPYTFGGGTKLEMKR = 3.05
• mouse anti-TL1A monoclonal antibody S7B11 (antibody, V domains shown) VH: QVKLQQSGGELVRPGTSVKISCKASGYAFTNYWLGWIKQRPGHGLEWIGDIHPGRGNIYYNEKFKGKATLTADKSSSTAYMQLSSLTSEDSAVYFCAEGYDTFDYWGQGTTLTVSS VL: DIVMTQSPSYLAASPGETITINCRASKSISKYLAWYQEKPGKTNKLLIYSGSTLQSGIPSRFSGSGSGTDFTLTISSLEPEDFAMYYCQQHNEYPYTFGGGTKLEIKR = 2.69
• anti-TL1A monoclonal antibody RVT-3101 (antibody, V domains shown) VH: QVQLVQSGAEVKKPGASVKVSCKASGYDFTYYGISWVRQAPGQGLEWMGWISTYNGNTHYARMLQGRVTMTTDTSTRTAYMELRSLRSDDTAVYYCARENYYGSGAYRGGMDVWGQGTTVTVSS VL: EIVLTQSPATLSLSPGERATLSCRASQSVSSYLAWYQQKPGQAPRLLIYDASNRATGIPARFSGSGSGTDFTLTISSLEPEDFAVYYCQQRSNWPWTFGQGTKVEIK = 3.13
• mouse anti-TL1A monoclonal antibody S9H9 (antibody, V domains shown) VH: QVQLKQSGAELVRPGTSVKISCKASGYAFTNYWLGWIKQRPGHGLEWIGDIHPGRGNIFYNEKFKGKATLTADKSSSTAYMQLSSLTSEDSAVYFCAEGYDTFDYWGQGTTLTVSA VL: DIVMTQSHKFMSTSVGDRVSITCKASQDVSTAVAWYQQKPGQSPKLLIYSASYRYTGVPDRFTGSGSGTDFTFTISSVQAEDLAVYYCQQHYSTPWTFGGGTKLEMKR = 2.69

Values were extracted from patent EP4818205A1.
